- Tested on: Saccharomyces cerevisiae
- Test Protocol: protein stability index of tFT-peptide fusion (C-terminal peptide) (PSI (0-1 scale)); higher = more stable (slower turnover)
- Experimental Conditions: genetic background: wild type; temperature: 30 C
Exercise: state measured protein stability index for each of the sequences provided.
Provide a numeric answer; units are not to be included.

Data request: Need protein stability index of LARTDVNFMPWF [TRA1 C-terminal 12 aa] , thanks.
Data returned: 0.744

Data request: Need protein stability index of PSPYYVSEVPVS [Q0010 C-terminal 12 aa] , thanks.
Data returned: 0.624

Data request: Need protein stability index of FLFHCVHLLLSG [YDR535C C-terminal 12 aa] , thanks.
Data returned: 0.491

Data request: Need protein stability index of LLASCIETTRNK [LOT6 C-terminal 12 aa] , thanks.
Data returned: 0.667

Data request: Need protein stability index of KKSKNRNTSLRP [SIP5 C-terminal 12 aa] , thanks.
Data returned: 0.689

Data request: Need protein stability index of GLEFHDVEDRIA [PEX18 C-terminal 12 aa] , thanks.
Data returned: 0.702

Data request: Need protein stability index of YLKEYEFSQKDF [PFS1 C-terminal 12 aa] , thanks.
Data returned: 0.734

Data request: Need protein stability index of VYVENPIRLFHH [ADE16 C-terminal 12 aa] , thanks.
Data returned: 0.723

Data request: Need protein stability index of PFALPSNDKVFF [ATO2 C-terminal 12 aa] , thanks.
Data returned: 0.731

Data request: Need protein stability index of ALGLAGAVMMLL [SPI1 C-terminal 12 aa] , thanks.
Data returned: 0.746

Data request: Need protein stability index of IFVAILLRYAKI [PCA1 C-terminal 12 aa] , thanks.
Data returned: 0.228

Data request: Need protein stability index of PFIFKTLEEQGL [CCP1 C-terminal 12 aa] , thanks.
Data returned: 0.691

====

- Tested on: Saccharomyces cerevisiae
- Test Protocol: protein stability index of tFT-peptide fusion (C-terminal peptide) (PSI (0-1 scale)); higher = more stable (slower turnover)
- Experimental Conditions: genetic background: wild type; temperature: 30 C
Result Type: protein stability index
Provide a numeric answer; units are not to be included.

Data request: Give protein stability index (Saccharomyces cerevisiae) of the following sequence: SFVTKKKAACYR [YIL025C C-terminal 12 aa]
Data returned: 0.706

Data request: Give protein stability index (Saccharomyces cerevisiae) of the following sequence: KKQESDNDANSK [CMC2 C-terminal 12 aa]
Data returned: 0.675

Data request: Give protein stability index (Saccharomyces cerevisiae) of the following sequence: RQEEIKKRTALV [DPC25 C-terminal 12 aa]
Data returned: 0.619

Data request: Give protein stability index (Saccharomyces cerevisiae) of the following sequence: NSSGEFQLESLF [MRI1 C-terminal 12 aa]
Data returned: 0.698

Data request: Give protein stability index (Saccharomyces cerevisiae) of the following sequence: SKKSKKSKKSEE [MRH1 C-terminal 12 aa]
Data returned: 0.695

Data request: Give protein stability index (Saccharomyces cerevisiae) of the following sequence: YKELVKNIESKL [CIT2 C-terminal 12 aa]
Data returned: 0.837

Data request: Give protein stability index (Saccharomyces cerevisiae) of the following sequence: SAENEESKEKCE [LAG1 C-terminal 12 aa]
Data returned: 0.658

Data request: Give protein stability index (Saccharomyces cerevisiae) of the following sequence: YKKAATLISNIL [DNM1 C-terminal 12 aa]
Data returned: 0.72

Data request: Give protein stability index (Saccharomyces cerevisiae) of the following sequence: SSSNKSQRNGRY [AIR1 C-terminal 12 aa]
Data returned: 0.69

Data request: Give protein stability index (Saccharomyces cerevisiae) of the following sequence: SLRPQERNLYGL [NTH1 C-terminal 12 aa]
Data returned: 0.753

Data request: Give protein stability index (Saccharomyces cerevisiae) of the following sequence: NSALSSTSTLAI [RIB1 C-terminal 12 aa]
Data returned: 0.64

Data request: Give protein stability index (Saccharomyces cerevisiae) of the following sequence: AYEPFSFRAIIE [STV1 C-terminal 12 aa]
Data returned: 0.723

Data request: Give protein stability index (Saccharomyces cerevisiae) of the following sequence: EEANEDEEEDDW [MYO5 C-terminal 12 aa]
Data returned: 0.706

Data request: Give protein stability index (Saccharomyces cerevisiae) of the following sequence: IFVGETIFFFLF [YDR053W C-terminal 12 aa]
Data returned: 0.536

Data request: Give protein stability index (Saccharomyces cerevisiae) of the following sequence: YILQKQIIEDVE [SFH5 C-terminal 12 aa]
Data returned: 0.65

Data request: Give protein stability index (Saccharomyces cerevisiae) of the following sequence: RSNAERKRRSPL [PBP2 C-terminal 12 aa]
Data returned: 0.68

Data request: Give protein stability index (Saccharomyces cerevisiae) of the following sequence: EIDGQFCIFQVV [YJL107C C-terminal 12 aa]
Data returned: 0.647

Data request: Give protein stability index (Saccharomyces cerevisiae) of the following sequence: SELQQIFPVSQQ [SPS100 C-terminal 12 aa]
Data returned: 0.689

Data request: Give protein stability index (Saccharomyces cerevisiae) of the following sequence: TNYEVTDTYTNS [SOM1 C-terminal 12 aa]
Data returned: 0.712

Data request: Give protein stability index (Saccharomyces cerevisiae) of the following sequence: CSTRRSYLRYKK [YBR285W C-terminal 12 aa]
Data returned: 0.663

Data request: Give protein stability index (Saccharomyces cerevisiae) of the following sequence: FKQSEITLYRTR [PEP8 C-terminal 12 aa]
Data returned: 0.722

Data request: Give protein stability index (Saccharomyces cerevisiae) of the following sequence: ELKAHNINVVDK [PNC1 C-terminal 12 aa]
Data returned: 0.675

Data request: Give protein stability index (Saccharomyces cerevisiae) of the following sequence: FFKQAEQEQADV [PRP11 C-terminal 12 aa]
Data returned: 0.698

Data request: Give protein stability index (Saccharomyces cerevisiae) of the following sequence: KTSLKITHRRVI [YGL117W C-terminal 12 aa]
Data returned: 0.658

Data request: Give protein stability index (Saccharomyces cerevisiae) of the following sequence: ILSLYFISDRTG [YBR200W-A C-terminal 12 aa]
Data returned: 0.753

Data request: Give protein stability index (Saccharomyces cerevisiae) of the following sequence: MLAKIHKLNNKA [RFC4 C-terminal 12 aa]
Data returned: 0.704

Data request: Give protein stability index (Saccharomyces cerevisiae) of the following sequence: QESTLETTQKED [AFI1 C-terminal 12 aa]
Data returned: 0.666

Data request: Give protein stability index (Saccharomyces cerevisiae) of the following sequence: TIEEVKIPGLDI [MRPL50 C-terminal 12 aa]
Data returned: 0.711

Data request: Give protein stability index (Saccharomyces cerevisiae) of the following sequence: QETAISVAKLFK [RPT6 C-terminal 12 aa]
Data returned: 0.708

Data request: Give protein stability index (Saccharomyces cerevisiae) of the following sequence: DSHEDMKRRRLE [ROX3 C-terminal 12 aa]
Data returned: 0.695

Data request: Give protein stability index (Saccharomyces cerevisiae) of the following sequence: KNFKTDLSSSSL [SMK1 C-terminal 12 aa]
Data returned: 0.711

Data request: Give protein stability index (Saccharomyces cerevisiae) of the following sequence: IKLIDFNETSLT [MCM22 C-terminal 12 aa]
Data returned: 0.675

Data request: Give protein stability index (Saccharomyces cerevisiae) of the following sequence: MEALKEAREILG [MSH1 C-terminal 12 aa]
Data returned: 0.628

Data request: Give protein stability index (Saccharomyces cerevisiae) of the following sequence: DDEFGDLDAVFF [SNF6 C-terminal 12 aa]
Data returned: 0.739

Data request: Give protein stability index (Saccharomyces cerevisiae) of the following sequence: CLMVSFLLLFGV [OLI1 C-terminal 12 aa]
Data returned: 0.309

Data request: Give protein stability index (Saccharomyces cerevisiae) of the following sequence: IESTLSNKLSIN [YCR013C C-terminal 12 aa]
Data returned: 0.674

Data request: Give protein stability index (Saccharomyces cerevisiae) of the following sequence: SCGCGSSFDIEN [ISA2 C-terminal 12 aa]
Data returned: 0.632

Data request: Give protein stability index (Saccharomyces cerevisiae) of the following sequence: VPQLHSFIAKEQ [RMD9 C-terminal 12 aa]
Data returned: 0.3

Data request: Give protein stability index (Saccharomyces cerevisiae) of the following sequence: LIIRNLNAEKER [YFR056C C-terminal 12 aa]
Data returned: 0.686

Data request: Give protein stability index (Saccharomyces cerevisiae) of the following sequence: ILWKNGIYIAHI [HUR1 C-terminal 12 aa]
Data returned: 0.611

Data request: Give protein stability index (Saccharomyces cerevisiae) of the following sequence: KNLWHHKINNLN [RAM2 C-terminal 12 aa]
Data returned: 0.166

Data request: Give protein stability index (Saccharomyces cerevisiae) of the following sequence: RTLGYSNNNGNN [UBX6 C-terminal 12 aa]
Data returned: 0.678

Data request: Give protein stability index (Saccharomyces cerevisiae) of the following sequence: TISNWIQETKEV [STO1 C-terminal 12 aa]
Data returned: 0.729

Data request: Give protein stability index (Saccharomyces cerevisiae) of the following sequence: NSLTQKYGTNNV [AAD15 C-terminal 12 aa]
Data returned: 0.697

Data request: Give protein stability index (Saccharomyces cerevisiae) of the following sequence: ELQEKVEQLSKW [POL3 C-terminal 12 aa]
Data returned: 0.688

Data request: Give protein stability index (Saccharomyces cerevisiae) of the following sequence: LTLIPILFGKLQ [YNL203C C-terminal 12 aa]
Data returned: 0.354

Data request: Give protein stability index (Saccharomyces cerevisiae) of the following sequence: SHHPHKNGKISF [YKR011C C-terminal 12 aa]
Data returned: 0.696

Data request: Give protein stability index (Saccharomyces cerevisiae) of the following sequence: KEGRRSRTRTSS [YJR098C C-terminal 12 aa]
Data returned: 0.703

Data request: Give protein stability index (Saccharomyces cerevisiae) of the following sequence: AKVYFLGRDSSI [NDE1 C-terminal 12 aa]
Data returned: 0.741
